- target.entity: UniProt P18825
- Sequence (P18825 1-462): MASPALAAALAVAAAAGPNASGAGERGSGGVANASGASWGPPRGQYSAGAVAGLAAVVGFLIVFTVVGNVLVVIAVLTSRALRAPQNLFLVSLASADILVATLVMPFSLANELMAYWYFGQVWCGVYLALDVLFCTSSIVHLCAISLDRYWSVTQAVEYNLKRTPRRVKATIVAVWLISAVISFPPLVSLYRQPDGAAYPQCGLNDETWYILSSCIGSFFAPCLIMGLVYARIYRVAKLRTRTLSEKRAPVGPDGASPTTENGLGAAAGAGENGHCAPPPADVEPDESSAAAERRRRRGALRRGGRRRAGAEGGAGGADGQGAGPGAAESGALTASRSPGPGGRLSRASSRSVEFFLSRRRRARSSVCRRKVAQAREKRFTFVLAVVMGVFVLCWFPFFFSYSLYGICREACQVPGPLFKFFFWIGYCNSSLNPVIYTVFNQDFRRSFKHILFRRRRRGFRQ
observation.type: Ki

query: Field request: Ki | item: "COc1ccc(CN[C@@H]2CO[C@H](C(c3ccc(F)cc3)c3ccc(F)cc3)C[C@H]2O)cc1"
result: > 10 µM

* * *

- target.entity: D1 (Homo sapiens)
- Sequence (P21728 whole entry): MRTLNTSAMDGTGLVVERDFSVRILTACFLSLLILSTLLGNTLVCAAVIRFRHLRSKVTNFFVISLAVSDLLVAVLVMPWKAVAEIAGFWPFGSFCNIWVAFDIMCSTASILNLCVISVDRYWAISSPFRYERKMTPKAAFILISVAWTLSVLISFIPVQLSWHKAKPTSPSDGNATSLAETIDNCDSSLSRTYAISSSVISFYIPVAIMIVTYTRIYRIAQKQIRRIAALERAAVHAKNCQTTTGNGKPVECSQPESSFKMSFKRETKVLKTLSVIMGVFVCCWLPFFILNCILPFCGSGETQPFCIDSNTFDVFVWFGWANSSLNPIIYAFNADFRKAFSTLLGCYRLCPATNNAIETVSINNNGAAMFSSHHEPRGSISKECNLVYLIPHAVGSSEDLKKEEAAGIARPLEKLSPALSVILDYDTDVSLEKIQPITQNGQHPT
- test.summary: NIMH PDSP receptor binding, D1
- measurement.conditions: [3H]SCH 23390, secondary assay, read-out: Ki for D-473
observation.type: pKi
pKi (log units): -log10 of the concentration in mol/L.

query: # value lookup — system D1 (Homo sapiens), readout pKi, item "COc1ccc(CN[C@@H]2CO[C@H](C(c3ccc(F)cc3)c3ccc(F)cc3)C[C@H]2O)cc1"
result: 6.20

* * *

- test.summary: Plasma concentration after oral administration in rats
- Assay type: in vivo
- measurement.conditions: rat, male Sprague-Dawley rats, 25 mg/kg PO, read-out: Estimated average half-life (converted)
observation.type: half-life (h)
Just the number in h, nothing appended.

query: // half-life lookup, key: COc1ccc(CN[C@@H]2CO[C@H](C(c3ccc(F)cc3)c3ccc(F)cc3)C[C@H]2O)cc1 [Compound D-473]
result: 6.39

* * *

- test.summary: Brain uptake after oral administration in rats
- Format: in vivo
- measurement.conditions: male, Sprague-Dawley, brain; rat; 25 mg/kg PO; 2 h
observation.type: concentration at 2 h (ng/mL)
Write the number in ng/mL without appending the unit.

query: Bench note: what concentration at 2 h did "COc1ccc(CN[C@@H]2CO[C@H](C(c3ccc(F)cc3)c3ccc(F)cc3)C[C@H]2O)cc1" show?
result: 264

* * *

- test.summary: Plasma concentration after oral administration in rats
- Format: in vivo
- measurement.conditions: rat, male Sprague-Dawley rats, 25 mg/kg PO, read-out: Average half-life (converted)
observation.type: half-life (h)
Enter your answer as a number in h; do not include the unit.

query: Report half-life for "COc1ccc(CN[C@@H]2CO[C@H](C(c3ccccc3)c3ccccc3)C[C@H]2O)cc1" please.
result: 2.5

* * *

- target.entity: hDAT (Homo sapiens, UniProt Q01959)
- Sequence (Q01959 whole entry): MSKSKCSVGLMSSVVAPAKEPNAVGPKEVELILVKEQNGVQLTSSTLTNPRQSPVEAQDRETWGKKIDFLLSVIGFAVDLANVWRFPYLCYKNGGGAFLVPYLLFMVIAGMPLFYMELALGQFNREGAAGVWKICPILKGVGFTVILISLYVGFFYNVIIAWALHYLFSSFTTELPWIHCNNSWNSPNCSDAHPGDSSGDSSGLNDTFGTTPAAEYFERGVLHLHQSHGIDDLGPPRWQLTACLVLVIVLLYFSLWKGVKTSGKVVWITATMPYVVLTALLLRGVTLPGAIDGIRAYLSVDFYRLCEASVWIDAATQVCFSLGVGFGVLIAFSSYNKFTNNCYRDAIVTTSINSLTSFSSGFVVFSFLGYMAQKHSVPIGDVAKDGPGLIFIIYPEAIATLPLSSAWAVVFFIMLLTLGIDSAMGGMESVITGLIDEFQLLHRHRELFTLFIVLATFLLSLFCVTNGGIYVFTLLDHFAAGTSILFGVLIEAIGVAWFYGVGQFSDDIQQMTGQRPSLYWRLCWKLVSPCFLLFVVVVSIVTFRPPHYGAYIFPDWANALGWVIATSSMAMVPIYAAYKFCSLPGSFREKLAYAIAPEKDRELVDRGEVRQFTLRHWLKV
- test.summary: Inhibition of [3H]DA uptake by cloned human DAT in HEK293 cells
- measurement.conditions: nM, HEK293 cells expressing hDAT, average±S.E.M., 3 to 10 determinations
observation.type: Ki (nM)
Entry rule: numbers only, all in nM.

query: What measured Ki goes with COc1ccc(CN[C@@H]2CO[C@H](C(c3ccccc3)c3ccccc3)C[C@H]2O)cc1 [Compound D-142] ?
result: 179
